System: SK-OV-3 ovarian
experimentalProtocol: NCI tumour cell line growth inhibition, 48 h
parameter: TGI

# molecule, subjectOfTest, result
records = [
    ("CC(NNC(=S)N1CCCCCC1)c1ccc2ccccc2n1 (stereo not drawn)", "SK-OV-3 ovarian", "26.9 µM"),
]

Case COC(=N)C12C(N)=NC(OC)(OC)C1(C#N)C21C(=O)N(c2ccccc2)N=C1C (stereo not drawn) , SK-OV-3 ovarian, TGI recorded as > 100 µM

Case O=[N+]([O-])c1cccc2nccc(NCC(O)CO)c12 (stereo not drawn) , SK-OV-3 ovarian, TGI recorded as 74.9 µM

* * *

Tested on: HL-60(TB) leukemia
experimentalProtocol: NCI tumour cell line growth inhibition, 48 h
Label rule, in plain words: TGI of 30 µM and up is yes, under 30 µM is no.

# compound, discreteLabel
records = [
    ("O=C1CCCC2=C1CC1=C(CCCC1=O)N2c1cccc2ccccc12", "yes"),
]

For the next question, use this compound.
Exercise: TGI >= 30 µM for COc1ccc(SC(C)(SC)c2ccccn2)c(OC)n1 (stereo not given) ?
Solution: no
